# System: rat adrenergic α1B receptor (Rattus norvegicus, UniProt P15823)
# Construct: rat adrenergic α1B receptor obtained from Wistar Rat liver; from tissue; host or cells: Wistar rat liver
# Sequence (P15823 1-515): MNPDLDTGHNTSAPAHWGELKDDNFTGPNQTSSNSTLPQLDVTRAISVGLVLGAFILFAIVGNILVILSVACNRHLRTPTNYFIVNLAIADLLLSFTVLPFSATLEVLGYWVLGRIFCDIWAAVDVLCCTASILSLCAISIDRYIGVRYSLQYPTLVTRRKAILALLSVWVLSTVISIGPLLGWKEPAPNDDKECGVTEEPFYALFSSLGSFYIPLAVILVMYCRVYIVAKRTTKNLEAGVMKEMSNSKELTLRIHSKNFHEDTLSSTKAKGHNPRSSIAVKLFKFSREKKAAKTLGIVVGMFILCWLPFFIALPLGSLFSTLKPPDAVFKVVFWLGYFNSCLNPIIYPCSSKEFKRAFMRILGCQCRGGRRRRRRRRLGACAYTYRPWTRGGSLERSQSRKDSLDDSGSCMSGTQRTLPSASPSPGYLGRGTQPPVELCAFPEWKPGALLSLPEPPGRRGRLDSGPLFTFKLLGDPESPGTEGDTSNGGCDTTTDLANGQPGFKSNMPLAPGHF
# Protocol: Radioligand binding, adrenergic α1B ([3H]Prazosin)
# Experimental Setup: compound at 0.1 μM; [3H]Prazosin; repeat assays, each datapoint shown; 0.1 µM
Hi, to clarify the labels: condition met covers Percentage inhibition of ligand binding, Adrenergic α1B from 30% upward, condition not met covers anything below 30%.

Worked cases, answers included:
Cc1ccc2c(c1)c1c(n2CC(O)c2ccncc2)CCNC1 (stereo not shown) [compound 39]	condition not met
COc1cccc2c3c(n(CC(O)c4ccncc4)c12)CCN(C)C3 (stereo not shown) [compound 44]	condition not met
COc1ccc(C(O)Cn2c3c(c4cc(C)ccc42)CN(C)CC3)cn1 (single isomer, unassigned) [51a]	condition not met
Cc1ccc2c(c1)c1c(n2CC(O)c2ccc(F)cc2)CN(C)CC1 (single isomer, unassigned) [18b]	condition met
Cc1ccc2c(c1)c1c(n2CC(C)(O)c2ccccn2)CN(C)CC1 (single isomer, unassigned) [16b]	condition not met

Prompt: Assess whether reported Percentage inhibition of ligand binding, Adrenergic α1B for Cc1ccc2c(c1)c1c(n2CC(C)(O)c2ccncc2)CCN(C)C1 (stereo not shown) sits at 30% or higher.
Completion: condition not met

Prompt: Cool, now "Cc1ccc2c(c1)c1c(n2CCc2ccc(CO)nc2)CCN(C)C1"
Completion: condition met

Prompt: Cool, now CN1CCc2c(n(CC(O)c3ccncc3)c3ccc(Cl)cc23)C1 (single isomer, unassigned) [41b]
Completion: condition met

Prompt: Cool, now CN1CCc2c(n(CC(C)(O)c3cccnc3)c3ccc(Cl)cc23)C1 (single isomer, unassigned) [28b]
Completion: condition not met

Prompt: Cool, now Cc1ccc2c(c1)c1c(n2CC(OC(=O)C(C)C)c2ccncc2)CCN(C)C1 (single isomer, unassigned) [54a]
Completion: condition met

Prompt: Cool, now Cc1ccc2c(c1)c1c(n2CC(O)c2ccncc2)CC2CCCN2C1 (single isomer, unassigned) [76c]
Completion: condition met

Prompt: Cool, now Cc1cnc2c(c1)c1c(n2CC(C)(O)c2cccnc2)CCN2CCCC12 (single isomer, unassigned) [26d]
Completion: condition not met

Prompt: Cool, now Cc1ccc2c(c1)c1c(n2CC(O)c2ccncc2)CC2CCCCN2C1 (racemic) [75c]
Completion: condition met

Attribution: patent US8791132B2
